Numbers sourced from patent US9040663B2.

- target_desc: hMC4-R (Homo sapiens (Human), UniProt P32245)
- Sequence (P32245 whole entry): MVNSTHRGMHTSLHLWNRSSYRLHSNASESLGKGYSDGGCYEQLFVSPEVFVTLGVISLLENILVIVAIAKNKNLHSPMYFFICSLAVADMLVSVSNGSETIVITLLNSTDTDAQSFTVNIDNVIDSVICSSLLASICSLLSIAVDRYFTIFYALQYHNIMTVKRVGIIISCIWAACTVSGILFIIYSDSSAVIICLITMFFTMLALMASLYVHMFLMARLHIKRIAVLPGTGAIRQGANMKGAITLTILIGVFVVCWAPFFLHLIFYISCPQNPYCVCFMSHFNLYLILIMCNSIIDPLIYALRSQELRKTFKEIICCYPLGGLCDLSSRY
- procedure_text: Competitive inhibition binding assay using [I125]-NDP-α-MSH, hMC4-R
- condition_context: membranes of HEK-293 cells expressing recombinant hMC4-R, read-out: MC4-R Ki
- Protocol: 7.1 Competitive Inhibition Assay using [I^125]-NDP-α-MSH. A competitive inhibition binding assay was performed for exemplified peptides according to the invention using membrane homogenates prepared from HEK-293 cells that express recombinant hMC4-R, hMC3-R, or hMC5-R, and from B-16 mouse melanoma cells (containing endogenous MC1-R). In some instances, HEK-293 cells that express recombinant hMC1-R were employed. […] Filters were dried and counted in a gamma counter for bound radioactivity. […]
Positions of bridges follow the written chain, without caps; N, C: chain ends. Non-standard residues stand in square brackets, D forms with d. Residues, ends and D or L forms follow the SMILES beside them. dPhe(4-CN) = N#Cc1ccc(C[C@@H](N)C(=O)O)cc1
attribute_measured: Ki
Mention the unit after the number when you answer.

Previously resolved entries follow.
CC(=O)N[C@@H](CCCNC(=N)N)C(=O)N[C@H]1CCC(=O)NCCC[C@@H](C(N)=O)NC(=O)[C@H](Cc2c[nH]c3ccccc23)NC(=O)[C@H](CCCNC(=N)N)NC(=O)[C@@H](Cc2ccccc2F)NC(=O)[C@H](CCN)NC1=O [Example 9] : 0.7 nM
CC(=O)N[C@@H](CCCNC(=N)N)C(=O)N[C@H]1CCC(=O)NCCC[C@@H](C(N)=O)NC(=O)[C@H](Cc2c[nH]c3ccccc23)NC(=O)[C@H](CCCNC(=N)N)NC(=O)[C@@H](Cc2cccc(Cl)c2)NC(=O)[C@H](CCCN)NC1=O [Example 101] : 1 nM
CC(=O)N[C@@H](CCCNC(=N)N)C(=O)N[C@H]1CCCCNC(=O)C[C@@H](C(N)=O)NC(=O)[C@H](Cc2c[nH]c3ccccc23)NC(=O)[C@H](CCCNC(=N)N)NC(=O)[C@@H](Cc2ccc(C#N)cc2)NC(=O)[C@H](CCC(N)=O)NC1=O [Example 93] (Ac-RKQ[dPhe(4-CN)]RWD-NH2; lactam 2-7) : 1 nM

Please find the next compound below.
Quick one: Ki of CC(=O)N[C@H](CCCNC(=N)N)C(=O)N[C@H]1CCCNC(=O)CC[C@@H](C(N)=O)NC(=O)[C@H](Cc2c[nH]c3ccccc23)NC(=O)[C@H](CCCNC(=N)N)NC(=O)[C@@H](Cc2ccccc2F)NC(=O)[C@H](Cc2c[nH]cn2)NC1=O [Example 53] ?
0.95 nM

----------
- target_desc: hMC4-R (Homo sapiens (Human))
- procedure_text: High and low density hMC4-R functional assay (cAMP, HEK293-T-REx-MC4-R cells)
- Type: cell-based
- condition_context: 10 ng/mL Doxycycline (high density hMC4-R system)
The following molecules are shown together with reported pEC50 values.
Keep in mind that pEC50 stands for -log10 of concentration in molar terms.

CC(=O)N[C@H](CCCNC(=N)N)C(=O)N[C@H]1CC(=O)NCCCC[C@@H](C(N)=O)NC(=O)[C@H](Cc2c[nH]c3ccccc23)NC(=O)[C@H](CCCNC(=N)N)NC(=O)[C@@H](Cc2ccccc2F)NC(=O)[C@H](CCC(N)=O)NC1=O [Example 82] : 10.02
CC(=O)N[C@@H](CCCNC(=N)N)C(=O)N[C@H]1CCCNC(=O)CC[C@@H](C(N)=O)NC(=O)[C@H](Cc2c[nH]c3ccccc23)NC(=O)[C@H](CCCNC(=N)N)NC(=O)[C@@H](Cc2ccc(C#N)cc2)NC(=O)[C@H](CC(N)=O)NC1=O [Example 91] : 9.58
CC(=O)N[C@@H](CCCNC(=N)N)C(=O)N[C@H]1CCCNC(=O)CC[C@@H](C(N)=O)NC(=O)[C@H](Cc2c[nH]c3ccccc23)NC(=O)[C@H](CCCNC(=N)N)NC(=O)[C@@H](Cc2ccccc2Cl)NC(=O)[C@H](CCC(N)=O)NC1=O [Example 112] : 10.15
CC(=O)N[C@@H](CCCNC(=N)N)C(=O)N[C@H]1CCC(=O)NCCC[C@@H](C(N)=O)NC(=O)[C@H](Cc2c[nH]c3ccccc23)NC(=O)[C@H](CCCNC(=N)N)NC(=O)[C@@H](Cc2ccc(F)cc2)NC(=O)[C@H](CCS(C)(=O)=O)NC1=O [Example 68] : 10.12
CC(=O)N[C@@H](CCCNC(=N)N)C(=O)N[C@H]1CC(=O)NCCCC[C@@H](C(N)=O)NC(=O)[C@H](Cc2c[nH]c3ccccc23)NC(=O)[C@H](CCCNC(=N)N)NC(=O)[C@@H](Cc2ccccc2F)NC(=O)[C@@H]2CCCN2C1=O [Example 104] : 8.00

Quick one: pEC50 of CC(=O)N[C@@H](CCCNC(=N)N)C(=O)N[C@H]1CCCNC(=O)CC[C@@H](C(N)=O)NC(=O)[C@H](Cc2c[nH]c3ccccc23)NC(=O)[C@H](CCCNC(=N)N)NC(=O)[C@@H](Cc2cccc(C)c2)NC(=O)[C@H](CC(N)=O)NC1=O [Example 72] ?
9.46

Quick one: pEC50 of CC(=O)N[C@@H](CCCNC(=N)N)C(=O)N[C@H]1CCC(=O)NCCC[C@@H](C(N)=O)NC(=O)[C@H](Cc2c[nH]c3ccccc23)NC(=O)[C@H](CCCNC(=N)N)NC(=O)[C@@H](Cc2ccc(C)cc2C)NC(=O)[C@H](CCN)NC1=O [Example 21] ?
9.30

Quick one: pEC50 of CC(=O)N[C@@H](CCCNC(=N)N)C(=O)N[C@H]1CCC(=O)NCCC[C@@H](C(N)=O)NC(=O)[C@H](Cc2c[nH]c3ccccc23)NC(=O)[C@H](CCCNC(=N)N)NC(=O)[C@@H](Cc2ccc(F)cc2)NC(=O)[C@@H]2CCCN2C1=O [Example 67] ?
9.85

Quick one: pEC50 of CC(=O)N[C@H](CCCNC(=N)N)C(=O)N[C@H]1CC(=O)NCCCC[C@@H](C(N)=O)NC(=O)[C@H](Cc2c[nH]c3ccccc23)NC(=O)[C@H](CCCNC(=N)N)NC(=O)[C@@H](Cc2ccc(C#N)cc2)NC(=O)[C@H](CCC(N)=O)NC1=O [Example 81] ?
9.35

Quick one: pEC50 of CC(=O)N[C@@H](CCCNC(=N)N)C(=O)N[C@H]1CCC(=O)NCCC[C@@H](C(N)=O)NC(=O)[C@H](Cc2c[nH]c3ccccc23)NC(=O)[C@H](CCCNC(=N)N)NC(=O)[C@@H](Cc2ccc(Cl)cc2Cl)NC(=O)[C@H](CCN)NC1=O [Example 4] ?
9.61

Quick one: pEC50 of CC(=O)N[C@@H](CCCNC(=N)N)C(=O)N[C@H]1CCC(=O)NCCC[C@@H](C(N)=O)NC(=O)[C@H](Cc2c[nH]c3ccccc23)NC(=O)[C@H](CCCNC(=N)N)NC(=O)[C@@H](Cc2ccccc2Cl)NC(=O)[C@H]([C@@H](C)OCc2ccccc2)NC1=O [Example 63] ?
9.80

Quick one: pEC50 of CC(=O)N[C@@H](CCCNC(=N)N)C(=O)N[C@H]1CCCNC(=O)CC[C@@H](C(N)=O)NC(=O)[C@H](Cc2c[nH]c3ccccc23)NC(=O)[C@H](CCCNC(=N)N)NC(=O)[C@@H](Cc2ccc(C#N)cc2)NC(=O)[C@H](CCC(N)=O)NC1=O [Example 94] ?
10.05
